# Test system: HT29 colon
# Test Description: NCI-60 one-dose screen, 48 h (100 = growth as untreated, 0 = no growth, -100 = all killed)
# Condition Details: 10 µM unless noted
About 83,000 compounds went through this panel and 20% of them were active in at least one assay; those are over-represented in the sample as a whole.
Could you please mark rule met for values of growth below 80% and rule not met for values at or above it?

Compound	Cat
COc1cc(-c2nc3c(ncc4ccc(=O)n(-c5ccccc5)c43)s2)cc(OC)c1OC	rule not met
COc1cc(C2C(C(=O)OCc3ccccc3)=C(C)NC(C)=C2C(=O)OCc2ccccc2)cc(OC)c1OC	rule met
COc1ccc(/C=C/c2c(C(=O)/C=C/c3ccccc3)c(C)nc3ccccc23)cc1	rule met
COc1cc(/C=N/Nc2ccc(Br)cc2)cc(OC)c1OC	rule met
NS(=O)(=O)c1ccc(C(=O)NN2C(=O)c3c(Br)c(Br)c(Br)c(Br)c3C2=O)cc1	rule not met
COc1ccc2nc(Cl)c(/C=C3\CC(c4ccccc4)=NN(c4ccccc4)C3=O)cc2c1	rule not met
CC1(C)C(N)=Nc2cc(OCCCN3Cc4ccccc4C3)c(OCC3CC3)cc21	rule met
O=C(N=Nc1c(O)[nH]c2ccccc12)Nc1ccc(F)cc1	rule not met
C[n+]1ccc(CCc2c[nH]c3ccccc23)cc1	rule not met
COc1ccccc1N(C(C)=O)C1=C(Cl)C(=O)c2ccccc2C1=O	rule met
COc1ccc(CCN2C(=O)/C(=C/c3ccc(C4Oc5ccccc5C5CC(c6ccccc6)=NN54)cc3)SC2=S)cc1 (centres undefined)	rule not met
CN(C)CCN1C(=O)c2cccc3c(/C=C/CN4C(=O)c5cccc6cccc(c56)C4=O)ccc(c23)C1=O	rule not met
O=C1/C(=C/c2ccc(O)c(O)c2)COc2ccc(-c3ccccc3)cc21	rule met
O=c1cc(-c2ccccc2)[nH]c2ncc(-c3ccc(F)cc3)n12	rule met
O=C(CCl)NNc1nccc(Nc2ccc(S(=O)(=O)Nc3ccncc3)cc2)n1	rule met
O=C(/C=C/c1ccccc1)c1ccc(Nc2nc(Nc3ccc(F)cc3)nc(Nc3ccc(Cl)cc3)n2)cc1	rule not met
CCOc1c(OC)cc2c(c1O)C(=O)N[C@@H]1[C@@H](O)[C@@H](O)[C@H](O)C[C@@H]21	rule not met
CCCn1nc(C(=O)N(C)Cc2ccccc2)c2c1CCC(N1CCc3ccccc31)C2 (centres undefined)	rule not met
NC1(CO)COC(c2ccccc2)OC1 (centres undefined)	rule not met
CC1(C)CC(=O)c2c(nn(-c3ccc(Br)cc3)c2-c2cn(-c3ccccc3)nc2-c2cccnc2)C1	rule not met
O=C(O)c1cn(C2CC2)c2cc(N3CCN(C(=O)Nc4nc(-c5ccc(Br)cc5)cs4)CC3)c(F)cc2c1=O	rule met
CCN(CC)CCN1C(=O)c2c(c(C)c3c(oc4ccc(O)cc43)c2C)C1=O	rule met
COc1ccc(/C=C/C(=O)c2cc3c(N)c(C(=O)Nc4cccc(Cl)c4C)sc3nc2C)cc1	rule met
CCc1ccc(CCC(=O)Nc2ncc(Cc3ccccc3)s2)o1	rule met
N#C/C(=C\c1cn(Cc2ccccc2)c2ccccc12)C(=O)Nc1ncc(Cc2ccccc2Cl)s1	rule met
COc1ccc(C2=CN3CC=CC3CC2=O)cc1 (centres undefined)	rule not met
O=C1/C(=C/c2ccccn2)NC(=S)N1c1ccccc1Cl	rule met
NC(=O)c1cnc(Nc2cccc(N)c2)nc1NCCCNC(=O)C1CCC1	rule not met
CN(C)c1ccc(-c2nc(-c3ccccc3)c(-c3ccccc3)[nH]2)cc1	rule met
N#Cc1c(-c2ccccc2)nc(SCc2nnc(-c3ccc(Cl)cc3)o2)[nH]c1=O	rule not met
O=C(/C=C(O)/C=C/c1cccc2[nH]ccc12)/C=C/c1cccc2[nH]ccc12	rule met
Nc1nc(N)c2c(n1)NC(c1cccc(Nc3ccnc4cc(C(F)(F)F)ccc34)c1)CC(c1ccc(Br)cc1)=N2 (centres undefined)	rule met
C=C(C)[C@@H]1CC[C@]2(C(=O)N3CCN(C)CC3)CC[C@]3(C)[C@H](CC[C@@H]4[C@@]5(C)CC[C@H](OC(=O)c6ccccc6C(=O)O)C(C)(C)[C@@H]5CC[C@]43C)[C@@H]12	rule not met
CC1=CC(c2ccco2)=C2C(N)=NNC2N1 (centres undefined)	rule not met
C[C@]1(O)CC(=O)[C@]2(O)C3=C(C=C[C@]2(O)C1)C(=O)c1c(O)cccc1C3=O	rule met
CC(C)CCN(CCC(C)C)CC(O)c1cc2c(c3ccccc13)CCCC2 (centres undefined)	rule met
Cc1ccc(N2C(=O)CCC2=O)cc1	rule not met
Cc1nc2ccccc2c(/C=C/c2ccccc2)c1C(=O)/C=C/c1ccccc1	rule met
N#C/C(=C\c1ccc(-c2cccc(C(F)(F)F)c2)o1)c1ccccc1	rule not met
